# System: IGROV-1
# Measurement Notes: NCI tumour cell line growth inhibition, 48 h
The source made the active and inactive calls. Cut-off read from the data, not from the text of the source: active = GI50 up to about 1.1 µM and inactive = higher.
Metric Name: GI50

A selection of reference data follows.
CC(=O)OCC1OC(N2C(=O)CC(N)=Nc3ccccc32)C(OC(C)=O)C(OC(C)=O)C1OC(C)=O (stereo unspecified)
45.1 µM (inactive)
CCN(CC)CCCn1cnc2ncccc2c1=O
> 100 µM (inactive)
O=C(c1no[n+]([O-])c1C(=O)c1csc2ccccc12)c1csc2ccccc12
1.4 µM (inactive)

In the following, a different molecule is considered.
Give a short answer stating reported GI50 for O=c1cc(C(F)(F)F)c2cc3c(cc2o1)NCCC3 .
97.3 µM (inactive)

* * *

# Tested on: 786-0
# Measurement Notes: NCI tumour cell line growth inhibition, 48 h
The source made the active and inactive calls. No stated cut-off is given here; in the data, active = GI50 up to about 1.1 µM and inactive = higher.
Metric Name: GI50

Cc1cn(C2CC(ON3C(=O)c4ccccc4C3=O)C(CO)O2)c(=O)[nH]c1=O (stereo not drawn)
> 10 µM (inactive)

Please turn your attention to the following entry.
Please supply the value of reported GI50 for the item CC(=O)Oc1ccc(/C=C/C(=O)NCCOC(=O)/C=C/c2ccc(OC(C)=O)c(OC(C)=O)c2)cc1OC(C)=O
19.5 µM (inactive)

* * *

# Tested on: TK-10
# Measurement Notes: NCI tumour cell line growth inhibition, 48 h
The source made the active and inactive calls. Cut-off read from the data, not from the text of the source: active = GI50 up to about 1.1 µM and inactive = higher.
Metric Name: GI50

Known GI50 results, listed for orientation:
CC1(C)OC2[C@@H](CO[C@@]3([C@H]4OC(C)(C)O[C@@H]4CO)OC(C)(C)O[C@@H]23)O1 (stereo partly specified)
> 100 µM (inactive)
COC(=O)/C=C\C(C#N)(C#N)/N=C/c1ccc(C)s1
1.97 µM (inactive)
C=CC(=O)N1C/C(=C\c2ccccc2)C(=O)/C(=C/c2ccccc2)C1
2.88 µM (inactive)

Provide GI50 value for the following molecule: COC(=O)CCCCC/C(=C\C(=O)C(Cl)(Cl)Cl)OC
29.4 µM (inactive)

Answer with reported GI50 of Clc1ccc(-c2c(C3=NCCCN3)nnn2-c2ccc(Cl)cc2)cc1
40 µM (inactive)

Provide one value: measured GI50 of COc1cc(/C=C2/C(=O)N/C(=N\C(C)=O)N2C)ccc1OC(C)=O
47.9 µM (inactive)

Report GI50 for O=C1Nc2nnc(S)n2NC12c1ccccc1-c1ccccc12
> 100 µM (inactive)

Supply recorded GI50 for CCCCC1=C(C(=O)N2CCOCC2)C2(OCCO2)C1Cl (stereo unspecified) here.
29.9 µM (inactive)

Name the recorded GI50 of the molecule listed here: CNC(=O)CN1CC(=O)N(C)C(=O)C1
> 100 µM (inactive)

Supply recorded GI50 for CCOc1ccccc1/C=C1\NC(=O)N(/C=C2\C(=O)Oc3ccccc3C2=O)C1=O here.
24.8 µM (inactive)

Please give the documented GI50 of CCOC(=O)C1Cc2ccc(C)cc2C1=O (stereo unspecified)
> 100 µM (inactive)

* * *

# Tested on: SNB-75
# Measurement Notes: NCI tumour cell line growth inhibition, 48 h
Activity calls are given as the source filed them. Rule as the data show it: active = GI50 up to about 1.1 µM and inactive = higher.
Field 'call' accepts active, inactive

Solved cases below.
[N-]=[N+]=Nc1c(-c2ccccc2)c(=O)n(-c2ccccc2)c2ccccc12
inactive
CCC(=O)C(C(C)/C=C/CCSc1ccccc1)C(O)CCCCCC(=O)OC (stereo not given)
inactive

Called result for C[n+]1ccc(/C2=C3\C=CC(=N3)/C(c3cc[n+](C)cc3)=c3/cc/c([nH]3)=C(\c3cc[n+](C)cc3)C3=N/C(=C(/c4cc[n+](C)cc4)C4C=CC2N4)C=C3)cc1
inactive

Call for entry Cc1ccc2c(c1)CC1(Cc3cccc(C)c3C1=O)C2=O (stereo not given) :
inactive

Please indicate how the test categorized COc1ccc(/C=N/N=C(\N)NO)c(O)c1 .
active
